Every entry's value here was drawn from patent US6150350A.

Tested on: 17 highly resistant MRSA strains
assayExplanation: In vitro activity: minimum inhibitory concentration (MIC) by the agar dilution method in Mueller Hinton agar, 17 highly resistant MRSA strains
Assay type: cell-based, Methicillin resistant Staphylococcus aureus (MRSA)
cond: Table 2, substance alone, inoculum =10^5 CFU/spot
Method: In vitro activity was determined by minimum inhibitory concentration (MIC) by the agar dilution method in Mueller Hinton agar inoculum =10^5 CFU/spot.
Structures can show the parent of a compound that is named as a salt.
MIC50 values, listed per item

Example compounds with recorded MIC50:
O=C(CSc1cc(Cl)c(Cl)cc1Cl)N[C@@H]1C(=O)N2C(C(=O)O)=C(/C=C3\CCN(C4CCNC4)C3=O)CS[C@H]12 (mixture of isomers) [Ex. 8, hydrochloride] = > 16 µg/mL
O=C(C[n+]1ccc(CN2CC/C(=C\C3=C(C(=O)[O-])N4C(=O)[C@@H](NC(=O)CSc5cc(Cl)c(Cl)cc5Cl)[C@H]4SC3)C2=O)cc1)Nc1ccc(O)cc1 = > 16 µg/mL

Okay, now this compound:
Value (MIC50, 17 highly resistant MRSA strains) for record O=C(C[n+]1ccc(CN2CC/C(=C\C3=C(C(=O)[O-])N4C(=O)[C@@H](NC(=O)CSc5ccc6ccccc6c5)[C@H]4SC3)C2=O)cc1)Nc1ccc(O)c(F)c1 = > 16 µg/mL
